Each item that follows carries a reported MHC (minimum concentration that resulted in 5% red blood cell hemolysis).
Test system: pig erythrocytes
Assay type: cell-based
CONDITION SUMMARY: red cells of porcine
Peptide text beside a SMILES is read from it. * marks the point of attachment. Lauroyl = CCCCCCCCCCCC(=O)*; Octanoyl = CCCCCCCC(=O)*

Please review the entries below; each comes with its answer.
INSERT INTO assay_data (molecule, value) VALUES
  ('CCCCCCCC(=O)N1CCC[C@H]1C(=O)N[C@@H](CCCNC(=N)N)C(=O)N1CCC[C@H]1C(=O)N[C@@H](Cc1c[nH]c2ccccc12)C(=O)N1CCC[C@H]1C(=O)N[C@@H](CCCNC(=N)N)C(=O)N1CCC[C@H]1C(N)=O [Compound C8-PWP, CH3(CH2)6CO-PRPWPRP-NH2] (Octanoyl-PRPWPRP-NH2)', '>512 µg/mL'),
  ('CCCCCCCC(=O)N1CCC[C@H]1C(=O)N[C@@H](CCCNC(=N)N)C(=O)N1CCC[C@H]1C(=O)NCC(=O)N1CCC[C@H]1C(=O)N[C@@H](CCCNC(=N)N)C(=O)N1CCC[C@H]1C(N)=O [Compound C8-PGP, CH3(CH2)6CO-PRPGPRP-NH2] (Octanoyl-PRPGPRP-NH2)', '>512 µg/mL');

Query :: So what does the record say about MHC (minimum concentration that resulted in 5% red blood cell hemolysis) for CCCCCCCCCCCC(=O)N1CCC[C@H]1C(=O)N[C@@H](CCCNC(=N)N)C(=O)N1CCC[C@H]1C(=O)N[C@@H](CC(C)C)C(=O)N1CCC[C@H]1C(=O)N[C@@H](CCCNC(=N)N)C(=O)N1CCC[C@H]1C(N)=O [Compound C12-PLP, CH3(CH2)10CO-PRPLPRP-NH2] (Lauroyl-PRPLPRP-NH2) ?
Result :: >512 µg/mL

----------
Tested on: A. baumannii CAN-ICU 63169
Format: cell-based
Peptide text beside a SMILES is read from it. * marks the point of attachment. Palmitoyl = CCCCCCCCCCCCCCCC(=O)*
PROPERTY MEASURED: MIC (µg/mL)
Number only, in µg/mL; omit the unit.

Query :: So what does the record say about MIC for CCCCCCCCCCCCCCCC(=O)N1CCC[C@H]1C(=O)N[C@@H](CCCNC(=N)N)C(=O)N1CCC[C@H]1C(=O)N[C@@H](Cc1c[nH]c2ccccc12)C(=O)N1CCC[C@H]1C(=O)N[C@@H](CCCNC(=N)N)C(=O)N1CCC[C@H]1C(N)=O [Compound C16-PWP, CH3(CH2)14CO-PRPWPRP-NH2] (Palmitoyl-PRPWPRP-NH2) ?
Result :: 64

----------
Each item that follows carries a reported MIC.
Test system: A. baumannii CAN-ICU 63169
Type: cell-based
Protocol: The synthesized SPRLPs were evaluated for their antibacterial potency against a panel of Gram-positive and Gram-negative bacteria (Tables 2 & 3). Some of the included pathogens were collected from patients visiting or admitted to participating Canadian hospitals through the CAN-ICU (27) and CANWARD (28) national surveillance studies. Antibacterial activity was assessed using minimum inhibitory concentration (MIC) against various clinical pathogens. […]
Peptide text beside a SMILES is read from it. * marks the point of attachment. Acetyl(1-adamantyl) = O=C(CC12CC3CC(CC(C3)C1)C2)*; Octanoyl = CCCCCCCC(=O)*

Please review the entries below; each comes with its answer.
INSERT INTO results (compound, value) VALUES
  ('N=C(N)NCCC[C@H](NC(=O)[C@@H]1CCCN1C(=O)[C@H](CCCNC(=N)N)NC(=O)[C@@H]1CCCN1C(=O)[C@H](CCCNC(=N)N)NC(=O)[C@@H]1CCCN1C(=O)CC12CC3CC(CC(C3)C1)C2)C(=O)N1CCC[C@H]1C(N)=O [Ad-PRP, Adamantyl-CH2CO-PRPRPRP-NH2] ({Acetyl(1-adamantyl)}-PRPRPRP-NH2)', '>128 µg/mL'),
  ('CCCCCCCC(=O)N1CCC[C@H]1C(=O)N[C@@H](CCCNC(=N)N)C(=O)N1CCC[C@H]1C(=O)NCC(=O)N1CCC[C@H]1C(=O)N[C@@H](CCCNC(=N)N)C(=O)N1CCC[C@H]1C(N)=O [Compound C8-PGP, CH3(CH2)6CO-PRPGPRP-NH2] (Octanoyl-PRPGPRP-NH2)', '>128 µg/mL');

We next turn to a different compound, shown below.
Query :: So what does the record say about MIC for N=C(N)NCCC[C@H](NC(=O)[C@@H]1CCCN1C(=O)CNC(=O)[C@@H]1CCCN1C(=O)[C@H](CCCNC(=N)N)NC(=O)[C@@H]1CCCN1C(=O)CC12CC3CC(CC(C3)C1)C2)C(=O)N1CCC[C@H]1C(N)=O [Ad-PGP, Adamantyl-CH2CO-PRPGPRP-NH2] ({Acetyl(1-adamantyl)}-PRPGPRP-NH2) ?
Result :: >128 µg/mL

----------
System: E. coli CAN-ICU 63074 (amikacin-intermediate resistant)
Assay type: cell-based
Peptide text beside a SMILES is read from it. * marks the point of attachment. Acetyl(1-adamantyl) = O=C(CC12CC3CC(CC(C3)C1)C2)*; Octanoyl = CCCCCCCC(=O)*
Each item that follows carries a reported MIC.

INSERT INTO measurements (molecule, value) VALUES
  ('CCCCCCCC(=O)N1CCC[C@H]1C(=O)N[C@@H](CCCNC(=N)N)C(=O)N1CCC[C@H]1C(=O)N[C@@H](CC(C)C)C(=O)N1CCC[C@H]1C(=O)N[C@@H](CCCNC(=N)N)C(=O)N1CCC[C@H]1C(N)=O [Compound C8-PLP, CH3(CH2)6CO-PRPLPRP-NH2] (Octanoyl-PRPLPRP-NH2)', '>128 µg/mL'),
  ('CCCCCCCC(=O)N1CCC[C@H]1C(=O)N[C@@H](CCCNC(=N)N)C(=O)N1CCC[C@H]1C(=O)NCC(=O)N1CCC[C@H]1C(=O)N[C@@H](CCCNC(=N)N)C(=O)N1CCC[C@H]1C(N)=O [Compound C8-PGP, CH3(CH2)6CO-PRPGPRP-NH2] (Octanoyl-PRPGPRP-NH2)', '>128 µg/mL');

Query :: So what does the record say about MIC for N=C(N)NCCC[C@H](NC(=O)[C@@H]1CCCN1C(=O)[C@H](Cc1c[nH]c2ccccc12)NC(=O)[C@@H]1CCCN1C(=O)[C@H](CCCNC(=N)N)NC(=O)[C@@H]1CCCN1C(=O)CC12CC3CC(CC(C3)C1)C2)C(=O)N1CCC[C@H]1C(N)=O [Ad-PWP, Adamantyl-CH2CO-PRPWPRP-NH2] ({Acetyl(1-adamantyl)}-PRPWPRP-NH2) ?
Result :: >128 µg/mL

----------
Test system: pig erythrocytes
Assay type: cell-based
Peptide text beside a SMILES is read from it. * marks the point of attachment. Palmitoyl = CCCCCCCCCCCCCCCC(=O)*; Lauroyl = CCCCCCCCCCCC(=O)*
PROPERTY MEASURED: MHC (minimum concentration that resulted in 5% red blood cell hemolysis) (µg/mL)
Number only, in µg/mL; omit the unit.

Please review the entries below; each comes with its answer.
INSERT INTO measurements (compound, value) VALUES
  ('CCCCCCCCCCCCCCCC(=O)N1CCC[C@H]1C(=O)N[C@@H](CCCNC(=N)N)C(=O)N1CCC[C@H]1C(=O)N[C@@H](Cc1c[nH]c2ccccc12)C(=O)N1CCC[C@H]1C(=O)N[C@@H](CCCNC(=N)N)C(=O)N1CCC[C@H]1C(N)=O [Compound C16-PWP, CH3(CH2)14CO-PRPWPRP-NH2] (Palmitoyl-PRPWPRP-NH2)', 16),
  ('CCCCCCCCCCCCCCCC(=O)N1CCC[C@H]1C(=O)N[C@@H](CCCNC(=N)N)C(=O)N1CCC[C@H]1C(=O)N[C@@H](CCCNC(=N)N)C(=O)N1CCC[C@H]1C(=O)N[C@@H](CCCNC(=N)N)C(=O)N1CCC[C@H]1C(N)=O [Compound C16-PRP, CH3(CH2)14CO-PRPRPRP-NH2] (Palmitoyl-PRPRPRP-NH2)', 16),
  ('CCCCCCCCCCCCCCCC(=O)N1CCC[C@H]1C(=O)N[C@@H](CCCNC(=N)N)C(=O)N1CCC[C@H]1C(=O)NCC(=O)N1CCC[C@H]1C(=O)N[C@@H](CCCNC(=N)N)C(=O)N1CCC[C@H]1C(N)=O [Compound C16-PGP, CH3(CH2)14CO-PRPGPRP-NH2] (Palmitoyl-PRPGPRP-NH2)', 16),
  ('CCCCCCCCCCCCCCCC(=O)N1CCC[C@H]1C(=O)N[C@@H](CCCNC(=N)N)C(=O)N1CCC[C@H]1C(=O)N[C@@H](CC(C)C)C(=O)N1CCC[C@H]1C(=O)N[C@@H](CCCNC(=N)N)C(=O)N1CCC[C@H]1C(N)=O [Compound C16-PLP, CH3(CH2)14CO-PRPLPRP-NH2] (Palmitoyl-PRPLPRP-NH2)', 16);

We next turn to a different compound, shown below.
Query :: So what does the record say about MHC (minimum concentration that resulted in 5% red blood cell hemolysis) for CCCCCCCCCCCC(=O)N1CCC[C@H]1C(=O)N[C@@H](CCCNC(=N)N)C(=O)N1CCC[C@H]1C(=O)N[C@@H](Cc1c[nH]c2ccccc12)C(=O)N1CCC[C@H]1C(=O)N[C@@H](CCCNC(=N)N)C(=O)N1CCC[C@H]1C(N)=O [Compound C12-PWP, CH3(CH2)10CO-PRPWPRP-NH2] (Lauroyl-PRPWPRP-NH2) ?
Result :: 64
